# Target Desc: MAPKAP-K2 (Homo sapiens)
# Sequence (P49137 whole entry): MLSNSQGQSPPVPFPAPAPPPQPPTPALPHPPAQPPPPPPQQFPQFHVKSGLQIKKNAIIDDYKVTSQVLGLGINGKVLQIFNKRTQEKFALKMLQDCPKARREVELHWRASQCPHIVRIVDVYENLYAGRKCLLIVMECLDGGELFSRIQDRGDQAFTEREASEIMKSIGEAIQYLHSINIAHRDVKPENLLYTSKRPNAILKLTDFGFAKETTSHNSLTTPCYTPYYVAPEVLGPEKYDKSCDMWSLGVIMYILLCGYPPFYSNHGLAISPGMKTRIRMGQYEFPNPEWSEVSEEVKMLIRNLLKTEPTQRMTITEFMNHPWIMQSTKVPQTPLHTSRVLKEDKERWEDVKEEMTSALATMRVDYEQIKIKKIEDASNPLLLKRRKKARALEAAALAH
# Assay Info: MAPKAP-K2 enzyme activity inhibition assay, Method B (33P-ATP, MultiScreen-PH plate)
# Type: biochemical
# Measurement Parameters: recombinant human MAPKAP-K2, 0.5% DMSO, 30 min room temperature, read-out: Inhibitory activity (MAPKAP-K2 IC50 class)
pIC50: −log10 of the molar value.
Below is a list of entries, each paired with its recorded pIC50 value.

Compound: Cc1c(O[C@H]2CC[C@@H](N)CC2)nc2ccnn2c1Nc1ccc(SC(F)(F)F)cc1
Readout: pIC50
Observed Measurement: ≥ 5.70
//
Compound: CCOc1ccc(Nc2c(C)c(OC3CCN(C)C3)nc3ccnn23)cc1 (centres unmarked)
Readout: pIC50
Observed Measurement: 4.00 to 4.70
//
Compound: C=CCc1c(O[C@H]2CC[C@@H](N)CC2)nc2ccnn2c1Nc1ccc(F)c(Cl)c1
Readout: pIC50
Observed Measurement: 4.70 to 5.70
//
Compound: Cc1c(OC2CCCNC2)nc2ccnn2c1Nc1ccc(C#N)c(C(F)(F)F)c1 (centres unmarked)
Readout: pIC50
Observed Measurement: 4.00 to 4.70

Pending compound:
Input: Quote pIC50 reported for Cc1c(OC2CCCNC2)nc2ccnn2c1Nc1cccc(NS(C)(=O)=O)c1 (centres unmarked) please.
Output: 4.70 to 5.70

All figures here come from patent US7667036B2.
